target: T1, full length recombinant human 2N4R tau (human, UniProt P10636 1-758); assay: SPR MCK, IgG on Protein A, tau in flow at 100 µL/min
T1 construct: bought from rPeptide; pHrodo Red maleimide-labelled where it stands in uptake assays; also called tau1-441; full length tau
T1 sequence (P10636 other isoform, or with tags, fused parts or gaps limits assumed): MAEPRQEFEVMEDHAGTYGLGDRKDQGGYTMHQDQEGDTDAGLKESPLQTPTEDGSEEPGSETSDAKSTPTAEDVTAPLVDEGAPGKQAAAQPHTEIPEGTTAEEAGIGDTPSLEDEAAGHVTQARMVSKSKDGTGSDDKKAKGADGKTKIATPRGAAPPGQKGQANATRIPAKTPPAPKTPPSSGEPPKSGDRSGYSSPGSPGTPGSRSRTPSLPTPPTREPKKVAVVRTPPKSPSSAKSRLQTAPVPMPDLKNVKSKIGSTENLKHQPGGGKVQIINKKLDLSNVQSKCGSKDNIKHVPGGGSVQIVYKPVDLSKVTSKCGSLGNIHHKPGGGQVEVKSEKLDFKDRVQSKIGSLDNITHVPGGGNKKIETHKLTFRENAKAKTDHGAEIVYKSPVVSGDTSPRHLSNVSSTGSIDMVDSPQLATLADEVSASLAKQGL
measured.attribute: kon (M⁻¹ s⁻¹)

1) #44_VH4VK4_H01/pVL (antibody, V domains shown, also called Clone VH4_H01; #44_VH4_H01) VH: QVQLQESGPGLVKPSETLSLTCTVSGIDLSSYAMAWVRQAPGKGLEWIGCIDRRGGTFYASWVKGRFTISKDTSKTTVDLQMTSLTAEDTATYFCARDVGSFDVWGQGTLVTVSS VL: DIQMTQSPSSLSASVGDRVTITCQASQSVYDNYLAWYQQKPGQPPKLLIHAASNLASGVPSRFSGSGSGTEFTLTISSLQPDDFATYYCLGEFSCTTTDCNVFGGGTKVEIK; 2.39e+06
